Target: recombinant soluble homotrimeric HA of A/Solomon Islands/3/06 (H1N1) (Influenza A virus A/Solomon Islands/3/2006(H1N1))
Test: HA microarray, BCC supernatant
Conditions: remark: other sources report otherwise
parameter measured: Trimeric HA Binding: RLU

{"binder": "TCN-544 (5082_A19) (antibody, V domains shown) VH: QVQLQESGPGLVKPSETLSLTCTVSRGSIGHYFWSWIRQPPGKGLEWIGYISYSGSTKYNPSLRSRVTISVDTSKNQFSLNLNSVTATDTALYYCAREDYDILTGAGPGMEVWGQGTTVTVSS VL: QSMLTQPPSASGTPGQRVTISCSGSSSNIGSNTVNWFKHLPGTAPKLLIYRNDLRPSGVPDRFSGSKSGTSASLAISGLQSEDEADYYCATWDDSLNGFYVFGTGTKVTVL", "meas value": "179 RLU"}
{"binder": "TCN-528 (5087_P17) (antibody, V domains shown) VH: QVQLVQSGSEVKKPGASVKVSCKASGYTFTNYDINWIRQAPGQGLEWMGWINPNSGTTGSAQRFQGRVTITVDTSITTVYMELSSLRSDDTAIYYCARGRELLRLQHFLTDSQSERRDCFDPWGQGTLVTVSS VL: DIQMTQSPSSLSASVGDRVTITCRANQDIGIYLNWYQQNPGKVPKLLLHGASSLQGGVPSRFSASGSGTDFTLTIHSLQPEDLATYYCQQSRRLPYTFGQGTRVELK", "meas value": "44800 RLU"}
